// TGI lookup, one value per entry
System: SW-620 colon
Experiment summary: NCI tumour cell line growth inhibition, 48 h
Measured parameter: TGI

[[record]]
molecule = "CC1(C)CC(c2c[nH]c3ccccc23)=CC2=Nc3ccccc3C21O (stereo not drawn)"
result = "> 100 µM"

[[record]]
molecule = "CC(C)(C)[Si](C)(C)OC1[C@@H](O[Si](C)(C)C(C)(C)C)[C@@H](CNC(=O)NC(=O)C(F)(F)F)O[C@H]1n1cnc2c(NC(=O)Nc3ccccc3)ncnc21 (stereo partly drawn)"
result = "15.7 µM"

[[record]]
molecule = "CCn1cnc2c(=S)nc(N)[nH]c21"
result = "> 100 µM"

[[record]]
molecule = "CON(C)C(=O)C(Cc1ccccc1)NC(=O)OCc1ccccc1 (stereo not drawn)"
result = "> 100 µM"

[[record]]
molecule = "CC(=C(c1ccc(OCCN2CCCCC2)cc1)c1ccc(OCCN2CCCCC2)cc1)c1ccc(Cl)cc1"
result = "0.794 µM"

[[record]]
molecule = "Nc1ncc2c(n1)-c1ccccc1OC2N1CCCCC1 (stereo not drawn)"
result = "> 100 µM"

[[record]]
molecule = "CC1NC(=O)C(C)C(c2ccccc2)N(N=O)C1c1ccccc1 (stereo not drawn)"
result = "> 100 µM"

[[record]]
molecule = "C=C(C)C12OC1[C@@]1(C)C(=CC2=O)CCC(O)[C@@H]1C (stereo partly drawn)"
result = "> 100 µM"

[[record]]
molecule = "COc1ccccc1NC(=O)c1cc2cc(Br)ccc2cc1O"
result = "11.1 µM"

[[record]]
molecule = "CCOC(=O)/C(C#N)=C/c1coc2cc(C)cc(C)c2c1=O"
result = "> 100 µM"

[[record]]
molecule = "COCCOCOC(CCCCO)c1cc(C)c(O[Si](C)(C)C(C)(C)C)c(C)c1 (stereo not drawn)"
result = "21.1 µM"

[[record]]
molecule = "COCOC1/C=C/CCCCC(=O)C(C)C#CC1 (stereo not drawn)"
result = "3.56 µM"

[[record]]
molecule = "CCOC(=O)c1csc(NC(=O)CN2CCCC2)n1"
result = "> 100 µM"

[[record]]
molecule = "COC(=O)c1cccc(C)c1C1CN=NC12Cc1cc(C)cc(C)c1C2=O (stereo not drawn)"
result = "> 100 µM"

[[record]]
molecule = "CCNC(=O)c1ccc(C)c(N=NN(C)C)c1"
result = "> 100 µM"

[[record]]
molecule = "Br[Se]c1ccccn1"
result = "51.4 µM"

[[record]]
molecule = "C[C@@]1(O)CC[C@]2(C)C3CCCC3[C@H]12 (stereo partly drawn)"
result = "> 100 µM"

[[record]]
molecule = "O=[N+]([O-])c1ccc2nc(Nc3ccccc3)c(Nc3ccccc3)nc2c1"
result = "3.46 µM"

[[record]]
molecule = "CCOC(=O)c1nnn(CCCCO)c1C(=O)OCC"
result = "> 100 µM"

[[record]]
molecule = "COc1cc(S(=O)(=O)Nc2ccc(-c3csc(N4C(=O)CSC4c4cccc(Oc5ccccc5)c4)n3)cc2)ccc1Cl (stereo not drawn)"
result = "> 100 µM"

[[record]]
molecule = "Cc1ccc(S(=O)(=O)N2CC2CCCCC=O)cc1 (stereo not drawn)"
result = "> 100 µM"

[[record]]
molecule = "COC(=O)c1cc2oc(/C=C3/SC(=S)N(NC(C)=O)C3=O)cc2n1C"
result = "25.5 µM"

[[record]]
molecule = "NC(=S)N/N=C\\c1nccc2c(C(F)(F)F)cccc12"
result = "17.4 µM"

